protocol_summary: Plasma pharmacokinetics of aqueous ENT-03S solution without cyclodextrin after subcutaneous injection
Format: in vivo, rat
experimental_parameters: male, Sprague-Dawley, rat, plasma, sc, 10 mg/kg, 2 mg/ml, 10 mg/kg SC, male SD rats, individual rats, read-out: AUClast
assay_metric: AUC(0-t)

- C[C@H](CCC[C@H](C)C(=O)O)[C@H]1CCC2C3C(CC[C@@]21C)[C@@]1(C)CC[C@H](NCCCNCCCCNCCCN)C[C@@H]1C[C@H]3O (stereo partly drawn) [ENT-03S]: 675 µg·h/mL

###

protocol_summary: Plasma pharmacokinetics of ENT-03S cyclodextrin formulation after subcutaneous injection
Type: in vivo, rat
experimental_parameters: male, Sprague-Dawley, rat, plasma, sc, 10 mg/kg, 20% beta-cyclodextrin formulation; 10 mg/kg SC; male SD rats; 72 h; mean
assay_metric: concentration at 72 h

• C[C@H](CCC[C@H](C)C(=O)O)[C@H]1CCC2C3C(CC[C@@]21C)[C@@]1(C)CC[C@H](NCCCNCCCCNCCCN)C[C@@H]1C[C@H]3O (stereo partly drawn) [ENT-03S] = 2830 ng/mL
